Assay: The drug is tested on WLS-038 corresponding to human gut metagenome with ENA study accession number: PRJEB37062 and ENA sample accession number: ERS12561745 for biotransformation under anaerobic condition. The drug concentrations were measured over 9 timepoints collected between 0 and 24 hours of incubation by liquid-chromatography-coupled mass spectrometry (LC–MS); further: call rule not given here
Details: 2 µM
assay.metric: Bacterial Biotransformation

Guide cases for Bacterial Biotransformation, answers given:
{"compound": "CN(CCOc1ccc(CC2SC(=O)NC2=O)cc1)c1ccccn1.O=C(O)/C=C\\C(=O)O (stereo not drawn) [ROSIGLITAZONE MALEATE]", "Bacterial Biotransformation": "Compound NOT metabolized"}
{"compound": "CN(C)CCOC(C)(c1ccccc1)c1ccccn1.O=C(O)CCC(=O)O (stereo not drawn) [DOXYLAMINE SUCCINATE]", "Bacterial Biotransformation": "Compound NOT metabolized"}
{"compound": "O=C1N=C([O-])NC1(c1ccccc1)c1ccccc1.[Na+] [PHENYTOIN SODIUM]", "Bacterial Biotransformation": "Compound NOT metabolized"}
{"compound": "CC(=O)OCC(CCn1cnc2cnc(N)nc21)COC(C)=O [FAMCICLOVIR]", "Bacterial Biotransformation": "Compound metabolized"}
{"compound": "O=C(NC(Cc1cc(=O)[nH]c2ccccc12)C(=O)O)c1ccc(Cl)cc1 (stereo not drawn) [REBAMIPIDE]", "Bacterial Biotransformation": "Compound NOT metabolized"}
{"compound": "CCOc1cc(CC(=O)N[C@@H](CC(C)C)c2ccccc2N2CCCCC2)ccc1C(=O)O [REPAGLINIDE]", "Bacterial Biotransformation": "Compound metabolized"}

Q: Quickly give me recorded Bacterial Biotransformation for CC(C)c1nc(N(C)S(C)(=O)=O)nc(-c2ccc(F)cc2)c1/C=C/[C@@H](O)C[C@@H](O)CC(=O)[O-].CC(C)c1nc(N(C)S(C)(=O)=O)nc(-c2ccc(F)cc2)c1/C=C/[C@@H](O)C[C@@H](O)CC(=O)[O-].[Ca+2] [ROSUVASTATIN CALCIUM]
Result: Compound NOT metabolized

Q: Quickly give me recorded Bacterial Biotransformation for CN1[C@@H]2CC[C@H]1C[C@@H](OC(=O)c1c[nH]c3ccccc13)C2 [TROPISETRON]
Result: Compound NOT metabolized

----------
Conditions: human gut metagenome, 24 h, 2 µM
assay.metric: Bacterial Biotransformation

Guide cases for Bacterial Biotransformation, answers given:
{"molecule": "CCCCC(=O)O[C@]1(C(=O)CO)[C@@H](C)C[C@H]2[C@@H]3CCC4=CC(=O)C=C[C@]4(C)[C@@]3(F)[C@@H](O)C[C@@]21C [BETAMETHASONE VALERATE]", "Bacterial Biotransformation": "Compound metabolized"}
{"molecule": "CN1CCC(OC(c2ccccc2)c2ccccc2)CC1", "Bacterial Biotransformation": "Compound NOT metabolized"}
{"molecule": "CCOC(=O)[C@H](CCc1ccccc1)N[C@@H](C)C(=O)N1CCC[C@H]1C(=O)O.O=C(O)/C=C\\C(=O)O [ENALAPRIL MALEATE]", "Bacterial Biotransformation": "Compound NOT metabolized"}
{"molecule": "CCOc1cc(CC(=O)N[C@@H](CC(C)C)c2ccccc2N2CCCCC2)ccc1C(=O)O [REPAGLINIDE]", "Bacterial Biotransformation": "Compound metabolized"}
{"molecule": "Nc1nnc(-c2cccc(Cl)c2Cl)c(N)n1 [LAMOTRIGINE]", "Bacterial Biotransformation": "Compound NOT metabolized"}

Q: Quickly give me recorded Bacterial Biotransformation for CC(=O)OCC(=O)NCCCOc1cccc(CN2CCCCC2)c1 [ROXATIDINE ACETATE]
Result: Compound metabolized

Q: Quickly give me recorded Bacterial Biotransformation for Cc1nc(Nc2ncc(C(=O)Nc3c(C)cccc3Cl)s2)cc(N2CCN(CCO)CC2)n1 [DASATINIB ANHYDROUS]
Result: Compound NOT metabolized

Q: Quickly give me recorded Bacterial Biotransformation for CNNCc1ccc(C(=O)NC(C)C)cc1 [PROCARBAZINE]
Result: Compound NOT metabolized

Q: Quickly give me recorded Bacterial Biotransformation for CN(C)C(=O)Oc1cccc([N+](C)(C)C)c1.[Br-] [NEOSTIGMINE BROMIDE]
Result: Compound NOT metabolized

Q: Quickly give me recorded Bacterial Biotransformation for CC1=C(CC(=O)O)c2cc(F)ccc2/C1=C\c1ccc([S+](C)[O-])cc1 (configuration not stated)
Result: Compound metabolized

Q: Quickly give me recorded Bacterial Biotransformation for CN(C)CCOC(C)(c1ccccc1)c1ccccn1.O=C(O)CCC(=O)O (configuration not stated) [DOXYLAMINE SUCCINATE]
Result: Compound NOT metabolized

Q: Quickly give me recorded Bacterial Biotransformation for CCOC(=O)C1=C(C)NC(C)=C(C(=O)OC)C1c1cccc([N+](=O)[O-])c1 (configuration not stated) [NITRENDIPINE]
Result: Compound metabolized

Q: Quickly give me recorded Bacterial Biotransformation for O=C1C(CC[S+]([O-])c2ccccc2)C(=O)N(c2ccccc2)N1c1ccccc1 (configuration not stated) [SULFINPYRAZONE]
Result: Compound metabolized

Q: Quickly give me recorded Bacterial Biotransformation for N[C@@H](Cc1ccc(N(CCCl)CCCl)cc1)C(=O)O
Result: Compound metabolized

Q: Quickly give me recorded Bacterial Biotransformation for CC(C)(C)N.CCC[C@H](N[C@@H](C)C(=O)N1[C@H](C(=O)O)C[C@@H]2CCCC[C@@H]21)C(=O)OCC [PERINDOPRIL ERBUMINE]
Result: Compound metabolized

Q: Quickly give me recorded Bacterial Biotransformation for CN1CCC[C@@H]1CCO[C@](C)(c1ccccc1)c1ccc(Cl)cc1.O=C(O)/C=C/C(=O)O [CLEMASTINE FUMARATE]
Result: Compound metabolized

Q: Quickly give me recorded Bacterial Biotransformation for C#C[C@]1(OC(C)=O)CC[C@H]2[C@@H]3CCC4=C[C@@H](OC(C)=O)CC[C@@H]4[C@H]3CC[C@@]21C [ETHYNODIOL DIACETATE]
Result: Compound metabolized

Q: Quickly give me recorded Bacterial Biotransformation for CN(C)CCC=C1c2ccccc2COc2ccccc21 [DOXEPIN]
Result: Compound NOT metabolized

Q: Quickly give me recorded Bacterial Biotransformation for CC12CC3CC(C)(C1)CC(N)(C3)C2 [MEMANTINE]
Result: Compound NOT metabolized

Q: Quickly give me recorded Bacterial Biotransformation for CC(C)C[C@H]1C(=O)N2CCC[C@H]2[C@]2(O)O[C@](NC(=O)[C@@H]3C=C4c5cccc6[nH]c(Br)c(c56)C[C@H]4N(C)C3)(C(C)C)C(=O)N12.CS(=O)(=O)O [BROMOCRIPTINE MESYLATE]
Result: Compound metabolized

----------
Experiment: The drug is tested on Z-016 corresponding to mouse gut metagenome with ENA study accession number: PRJEB37062 and ENA sample accession number: ERS12561815 for biotransformation under anaerobic condition. The drug concentrations were measured over 9 timepoints collected between 0 and 24 hours of incubation by liquid-chromatography-coupled mass spectrometry (LC–MS)
Conditions: 2 µM
assay.metric: Bacterial Biotransformation

{"compound": "C[C@@H](c1ncncc1F)[C@](O)(Cn1cncn1)c1ccc(F)cc1F", "Bacterial Biotransformation": "Compound metabolized"}
{"compound": "COc1ccc2c(c1)c(CC(=O)O)c(C)n2C(=O)c1ccc(Cl)cc1", "Bacterial Biotransformation": "Compound NOT metabolized"}
{"compound": "Br.COc1ccc2c(c1)[C@]13CCCC[C@@H]1[C@H](C2)N(C)CC3.O [DEXTROMETHORPHAN HYDROBROMIDE]", "Bacterial Biotransformation": "Compound NOT metabolized"}
{"compound": "c1ccc2[nH]c(-c3cscn3)nc2c1", "Bacterial Biotransformation": "Compound NOT metabolized"}
{"compound": "CCN1CCCC1CNC(=O)c1cc(S(=O)(=O)CC)c(N)cc1OC (stereo not drawn) [AMISULPRIDE]", "Bacterial Biotransformation": "Compound NOT metabolized"}

Q: Quickly give me recorded Bacterial Biotransformation for CC(C)(C)NC[C@H](O)COc1nsnc1N1CCOCC1.O=C(O)/C=C\C(=O)O [TIMOLOL MALEATE]
Result: Compound NOT metabolized

Q: Quickly give me recorded Bacterial Biotransformation for CC#C[C@]1(O)CC[C@H]2[C@@H]3CCC4=CC(=O)CCC4=C3[C@@H](c3ccc(N(C)C)cc3)C[C@@]21C
Result: Compound metabolized

Q: Quickly give me recorded Bacterial Biotransformation for COC(=O)[C@H](c1ccccc1Cl)N1CCc2sccc2C1.O=S(=O)(O)O [CLOPIDOGREL BISULFATE]
Result: Compound metabolized

----------
Experiment: The drug is tested on WLS-007 corresponding to human gut metagenome with ENA study accession number: PRJEB37062 and ENA sample accession number: ERS12561742 for biotransformation under anaerobic condition. The drug concentrations were measured over 9 timepoints collected between 0 and 24 hours of incubation by liquid-chromatography-coupled mass spectrometry (LC–MS)
Details: 2 µM
assay.metric: Bacterial Biotransformation

Guide cases for Bacterial Biotransformation, answers given:
{"molecule": "N=C(N)NC(=O)Cc1c(Cl)cccc1Cl", "observed.result": "Compound NOT metabolized"}
{"molecule": "C=CC[C@@H]1/C=C(\\C)C[C@H](C)C[C@H](OC)[C@H]2O[C@@](O)(C(=O)C(=O)N3CCCC[C@H]3C(=O)O[C@H](/C(C)=C/[C@@H]3CC[C@@H](O)[C@H](OC)C3)[C@H](C)[C@@H](O)CC1=O)[C@H](C)C[C@@H]2OC.O", "observed.result": "Compound NOT metabolized"}
{"molecule": "CC(C)(C)N.CCC[C@H](N[C@@H](C)C(=O)N1[C@H](C(=O)O)C[C@@H]2CCCC[C@@H]21)C(=O)OCC", "observed.result": "Compound metabolized"}
{"molecule": "CC(C)(C)NC(=O)[C@H]1CC[C@H]2[C@@H]3CC[C@H]4NC(=O)C=C[C@]4(C)[C@H]3CC[C@]12C [FINASTERIDE]", "observed.result": "Compound NOT metabolized"}
{"molecule": "O=C(O)CCC(=O)O.O=C(O[C@H]1CN2CCC1CC2)N1CCc2ccccc2[C@@H]1c1ccccc1 [SOLIFENACIN SUCCINATE]", "observed.result": "Compound metabolized"}

Q: Quickly give me recorded Bacterial Biotransformation for c1ccc2[nH]c(-c3cscn3)nc2c1
Result: Compound NOT metabolized

Q: Quickly give me recorded Bacterial Biotransformation for C[C@]12CCC(=O)C=C1[C@@H]1C[C@@H]1[C@H]1[C@@H]3[C@@H]4C[C@@H]4[C@@]4(CCC(=O)O4)[C@@]3(C)CC[C@@H]12
Result: Compound metabolized

Q: Quickly give me recorded Bacterial Biotransformation for O=P1(N(CCCl)CCCl)NCCCO1 (configuration not stated) [CYCLOPHOSPHAMIDE ANHYDROUS]
Result: Compound NOT metabolized

Q: Quickly give me recorded Bacterial Biotransformation for CCc1cccc2c3c([nH]c12)C(CC)(CC(=O)O)OCC3 (configuration not stated)
Result: Compound metabolized

Q: Quickly give me recorded Bacterial Biotransformation for CCN1CCCC1CNC(=O)c1cc(S(=O)(=O)CC)c(N)cc1OC (configuration not stated) [AMISULPRIDE]
Result: Compound NOT metabolized

Q: Quickly give me recorded Bacterial Biotransformation for COc1ccc2c(c1)c(CC(=O)O)c(C)n2C(=O)c1ccc(Cl)cc1
Result: Compound metabolized

Q: Quickly give me recorded Bacterial Biotransformation for O=C1CC2(CCCC2)CC(=O)N1CCCCN1CCN(c2ncccn2)CC1
Result: Compound NOT metabolized

Q: Quickly give me recorded Bacterial Biotransformation for CCN(C)C(=O)Oc1cccc([C@H](C)N(C)C)c1.O=C(O)C(O)C(O)C(=O)O [RIVASTIGMINE TARTRATE]
Result: Compound NOT metabolized

Q: Quickly give me recorded Bacterial Biotransformation for CN1CCN(C2=Nc3ccccc3Oc3ccc(Cl)cc32)CC1.O=C(O)CCC(=O)O [LOXAPINE SUCCINATE]
Result: Compound NOT metabolized

Q: Quickly give me recorded Bacterial Biotransformation for CN1[C@@H]2CC[C@H]1C[C@@H](OC(=O)c1c[nH]c3ccccc13)C2
Result: Compound NOT metabolized

Q: Quickly give me recorded Bacterial Biotransformation for OC(c1cc(C(F)(F)F)nc2c(C(F)(F)F)cccc12)C1CCCCN1 (configuration not stated)
Result: Compound NOT metabolized

Q: Quickly give me recorded Bacterial Biotransformation for CSc1ccc2c(c1)C(N1CCN(C)CC1)Cc1ccccc1S2.O=C(O)/C=C\C(=O)O (configuration not stated)
Result: Compound NOT metabolized

Q: Quickly give me recorded Bacterial Biotransformation for CCN(CC)CCNC(=O)c1cc(S(C)(=O)=O)ccc1OC [TIAPRIDE]
Result: Compound NOT metabolized

Q: Quickly give me recorded Bacterial Biotransformation for CC1=C(CC(=O)O)c2cc(F)ccc2/C1=C\c1ccc([S+](C)[O-])cc1 (configuration not stated)
Result: Compound metabolized

Q: Quickly give me recorded Bacterial Biotransformation for CN(C)C(=O)Oc1cccc([N+](C)(C)C)c1.[Br-] [NEOSTIGMINE BROMIDE]
Result: Compound NOT metabolized

Q: Quickly give me recorded Bacterial Biotransformation for Cc1cc2c(s1)Nc1ccccc1N=C2N1CCN(C)CC1
Result: Compound NOT metabolized

Q: Quickly give me recorded Bacterial Biotransformation for CN(C)CCOC(C)(c1ccccc1)c1ccccn1.O=C(O)CCC(=O)O (configuration not stated) [DOXYLAMINE SUCCINATE]
Result: Compound NOT metabolized

Q: Quickly give me recorded Bacterial Biotransformation for CC(=O)CCCCn1c(=O)c2c(ncn2C)n(C)c1=O
Result: Compound NOT metabolized

Q: Quickly give me recorded Bacterial Biotransformation for CCCCC(=O)O[C@]1(C(=O)CO)[C@@H](C)C[C@H]2[C@@H]3CCC4=CC(=O)C=C[C@]4(C)[C@@]3(F)[C@@H](O)C[C@@]21C [BETAMETHASONE VALERATE]
Result: Compound metabolized

Source of measurements: ChEMBL document CHEMBL5724914
